Taken from patent US8742100B2.

system: MDA-MB-231 human breast cells; assay: Proliferation assay, CellTiter 96 AQueous One Solution (MTS); assay type: cell-based; settings: MDA-MB-231 cells, MTS colorimetric assay, 72 h, one determination
pIC50: −log10 of the molar value.
EXPERIMENTAL READOUT: pIC50

{"columns": ["STRUCTURE SMILES STRING", "REPORTED VALUE"],
 "data": [
  ["CCCCCCCCn1cc(CN(CC)CC)c2cc(F)ccc21", 5.70]
]}

----------
Here the recorded fraction unbound at 30 min, 25 µM is given for each entry.
experiment: Binding to fetal bovine serum (plasma protein binding), centrifugal filter device, HPLC; type: in vitro ADME; conditions: bovine, 5% w/v fetal bovine serum in phosphate buffered saline, 25 uM, 5% fetal bovine serum in PBS; read-out: % Bound Run 1 (converted)

{"columns": ["MOLECULE", "fraction unbound at 30 min, 25 µM"],
 "data": [
  ["CCCCCCCCn1cc(CC(N)=O)c2cc(-c3cccc(C)c3)ccc21 [cysmethynil, reference compound]", 0.219],
  ["CCN(CC)Cc1cn(CC=C(C)C)c2ccc(-c3cccc(C)c3)cc12 [Compound J38G]", 0.725],
  ["CCCCCCCCn1cc(CN(CC)CC)c2cc(-c3cccc(C)c3)ccc21 [Compound J17G]", 0.286]
]}

----------
experiment: Binding to fetal bovine serum (plasma protein binding), centrifugal filter device, HPLC; type: in vitro ADME; conditions: bovine, 5% w/v fetal bovine serum in phosphate buffered saline, 10 uM, 5% fetal bovine serum in PBS; read-out: % Bound Average (converted)

{"columns": ["COMPOUND", "fraction unbound at 30 min, 10 µM"],
 "data": [
  ["CCN(CC)Cc1cn(CC=C(C)C)c2ccc(-c3cccc(C)c3)cc12 [Compound J38G]", 0.765],
  ["CCCCCCCCn1cc(CN(CC)CC)c2cc(-c3cccc(C)c3)ccc21 [Compound J17G]", 0.299],
  ["CCCCCCCCn1cc(CC(N)=O)c2cc(-c3cccc(C)c3)ccc21 [cysmethynil, reference compound]", 0.0945]
]}

----------
Here the recorded fraction unbound at 30 min, 1 µM is given for each entry.
Experiment: Binding to fetal bovine serum (plasma protein binding), centrifugal filter device, HPLC
Assay type: in vitro ADME
Settings: bovine, 5% w/v fetal bovine serum in phosphate buffered saline, 1 uM, 5% fetal bovine serum in PBS; read-out: % Bound Run 1 (converted)
Experimental: Semi-automatic high-throughput determination of plasma protein binding using a 96-well plate filtrate assembly and fast liquid chromatography—tandem mass spectrometry. […] Stock solutions were prepared in DMSO at 100× higher concentrations. A 5% w/v solution of fetal bovine serum in phosphate buffered saline was prepared. […]

{"columns": ["MOLECULE", "fraction unbound at 30 min, 1 µM"],
 "data": [
  ["CCCCCCCCn1cc(CN(CC)CC)c2cc(-c3cccc(C)c3)ccc21 [Compound J17G]", 0.17],
  ["CCN(CC)Cc1cn(CC=C(C)C)c2ccc(-c3cccc(C)c3)cc12 [Compound J38G]", 0.747],
  ["CCCCCCCCn1cc(CC(N)=O)c2cc(-c3cccc(C)c3)ccc21 [cysmethynil, reference compound]", 0.107]
]}

----------
assay: Binding to fetal bovine serum (plasma protein binding), centrifugal filter device, HPLC; format: in vitro ADME; conditions: bovine, 5% w/v fetal bovine serum in phosphate buffered saline, 4 uM, 5% fetal bovine serum in PBS; read-out: % Bound Run 1 (converted)
Here the recorded fraction unbound at 30 min, 4 µM is given for each entry.

{"columns": ["MOLECULE", "fraction unbound at 30 min, 4 µM"],
 "data": [
  ["CCCCCCCCn1cc(CC(N)=O)c2cc(-c3cccc(C)c3)ccc21 [cysmethynil, reference compound]", 0.0557],
  ["CCCCCCCCn1cc(CN(CC)CC)c2cc(-c3cccc(C)c3)ccc21 [Compound J17G]", 0.274],
  ["CCN(CC)Cc1cn(CC=C(C)C)c2ccc(-c3cccc(C)c3)cc12 [Compound J38G]", 0.616]
]}
